Hey, just so you know, these numbers are from patent US6060241A.

Measured Specific activity (mU/mg ± SD), 3-oxoacid CoA transferase, H pytori of individual entries
# tested target: Hp 3-oxoacid CoA-transferase (Helicobacter pylori, UniProt P56006+P56007)
# Construct: second column endogenous enzyme in H. pylori lysate
# Sequence (P56006 whole entry): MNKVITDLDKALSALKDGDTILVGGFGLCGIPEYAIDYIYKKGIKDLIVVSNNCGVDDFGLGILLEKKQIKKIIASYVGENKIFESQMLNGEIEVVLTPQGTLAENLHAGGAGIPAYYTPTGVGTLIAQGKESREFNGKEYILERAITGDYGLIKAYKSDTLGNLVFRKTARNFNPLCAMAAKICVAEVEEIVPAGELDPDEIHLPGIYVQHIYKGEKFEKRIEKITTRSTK
# Sequence (P56007 whole entry): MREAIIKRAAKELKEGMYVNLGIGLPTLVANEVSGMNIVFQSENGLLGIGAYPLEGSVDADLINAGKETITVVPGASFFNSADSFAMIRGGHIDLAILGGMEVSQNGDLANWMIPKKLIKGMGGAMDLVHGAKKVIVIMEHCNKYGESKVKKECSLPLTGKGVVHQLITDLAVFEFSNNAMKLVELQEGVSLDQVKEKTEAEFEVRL
# assay overview: 3-oxoacid CoA transferase activity endogenous in H. pylori lysates, in the presence of inhibitors
# Assay type: biochemical
# condition set: substances (50 nM); endogenous enzyme in H. pylori lysate; none = 25 ± 1

Qu. What value of Specific activity (mU/mg ± SD), 3-oxoacid CoA transferase, H pytori has been recorded for this entry: COC(=O)CCC(=O)O
Ans. 14 ± 3 mU/mg

Qu. Look up Specific activity (mU/mg ± SD), 3-oxoacid CoA transferase, H pytori: CC(CC(=O)O)C(=O)O (stereo not shown)
Ans. 0 ± 1 mU/mg

Qu. Given the entry O=C(O)CCCC(=O)O , report its measured Specific activity (mU/mg ± SD), 3-oxoacid CoA transferase, H pytori.
Ans. 16 ± 5 mU/mg

Qu. What value of Specific activity (mU/mg ± SD), 3-oxoacid CoA transferase, H pytori has been reported for the following compound? O=C(O)CC(=O)O [disodium malonate]
Ans. 27 ± 4 mU/mg

Qu. Which value of Specific activity (mU/mg ± SD), 3-oxoacid CoA transferase, H pytori has been reported for O=C(O)CC(S)C(=O)O (stereo not shown) in the records?
Ans. 2 ± 2 mU/mg

Qu. May I ask what Specific activity (mU/mg ± SD), 3-oxoacid CoA transferase, H pytori has been recorded for N[C@@H](CC(=O)O)C(=O)[O-].[Na+] [monosodium aspartate] ?
Ans. 24 ± 1 mU/mg

Qu. Record request: Specific activity (mU/mg ± SD), 3-oxoacid CoA transferase, H pytori value, item O=C(O)CC(O)C(=O)O (stereo not shown) [monosodium malate]
Ans. 22 ± 8 mU/mg
